system: HEK-293T; test: Multiplex assay against HEK293T; type: toxicity, cell-based; details: human, 24 h, 10 µM, compound concentration 10 uM, replicate 2
property: Population Hoechst High Intensity Objects (%)
Reply with the number, then its unit.

Examples with their reported Population Hoechst High Intensity Objects (%) follow.
CC1=C(C(=O)Nc2cc3cn[nH]c3cc2F)C(c2ccc(C(F)(F)F)cc2)CC(=O)N1 (stereo not given) :: 2%
O=c1[nH]c2ccccc2n1C1CCN(Cc2ccc(-c3[nH]c4cc5ncnc5cc4nc3-c3ccccc3)cc2)CC1 :: 23%
CCc1nn(CCCN2CCN(c3cccc(Cl)c3)CC2)c(=O)n1CCOc1ccccc1.Cl [NEFAZODONE HYDROCHLORIDE] :: 10%
CC(C)(C)NC[C@H](O)COc1nsnc1N1CCOCC1 :: 3%

Please find the next compound below.
Data request: Param readout= Population Hoechst High Intensity Objects (%); system= HEK-293T; entry= O=C(c1cc2c(cc1F)OC(c1ccc(F)cc1)(c1ccc(Cl)cc1Cl)O2)N1CCOCC1 (stereo not given) ; returns value.
Data returned: 7%
